# maps each entry to its AC50
system-under-test: Alpha-1A adrenergic receptor (Homo sapiens); note: assay procedure not described here
Sequence (P35348 whole entry): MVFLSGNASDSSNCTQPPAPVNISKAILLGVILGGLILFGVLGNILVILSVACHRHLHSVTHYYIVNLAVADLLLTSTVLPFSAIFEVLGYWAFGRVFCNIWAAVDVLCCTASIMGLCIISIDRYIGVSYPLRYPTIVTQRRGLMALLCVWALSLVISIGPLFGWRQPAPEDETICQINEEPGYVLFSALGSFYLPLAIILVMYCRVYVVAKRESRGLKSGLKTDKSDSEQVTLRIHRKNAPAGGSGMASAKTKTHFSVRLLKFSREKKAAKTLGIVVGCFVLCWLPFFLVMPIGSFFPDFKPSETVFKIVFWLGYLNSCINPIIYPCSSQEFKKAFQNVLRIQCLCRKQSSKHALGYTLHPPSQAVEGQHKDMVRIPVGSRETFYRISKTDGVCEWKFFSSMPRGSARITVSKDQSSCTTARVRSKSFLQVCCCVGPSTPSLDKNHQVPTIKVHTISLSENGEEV
Type: functional, cell-based

Example cases with answers are listed next.
- compound: "CNC1(c2ccccc2Cl)CCCCC1=O (stereo not given) [KETAMINE]"
  AC50: "> 30 µM"
- compound: "CS(=O)(=O)Nc1ccc([N+](=O)[O-])cc1Oc1ccccc1 [NIMESULIDE]"
  AC50: "> 30 µM"
- compound: "Cc1cc(C)cc(OCC2CNC(=O)O2)c1 (stereo not given) [METAXALONE]"
  AC50: "> 30 µM"
- compound: "COc1ncnc(NS(=O)(=O)c2ccc(N)cc2)c1OC [SULFADOXINE]"
  AC50: "> 30 µM"
- compound: "CC(=O)O[C@]1(C(C)=O)CC[C@H]2[C@@H]3CCC4=CC(=O)CCC4=C3[C@@H](c3ccc(N(C)C)cc3)C[C@@]21C [ULIPRISTAL ACETATE]"
  AC50: "> 30 µM"
- compound: "CC(C)=CCC/C(C)=C/CC/C(C)=C/CC/C(C)=C/CC1=C(C)C(=O)c2ccccc2C1=O [MENATETRENONE]"
  AC50: "> 30 µM"
- compound: "COCC(=O)O[C@]1(CCN(C)CCCc2nc3ccccc3[nH]2)CCc2cc(F)ccc2[C@@H]1C(C)C [MIBEFRADIL]"
  AC50: "1.58 µM"
- compound: "CNC(=O)c1cnn(-c2nc(N)c3ncn([C@@H]4O[C@H](CO)[C@@H](O)[C@H]4O)c3n2)c1 [REGADENOSON ANHYDROUS]"
  AC50: "> 30 µM"
- compound: "C[C@@H]1O[C@@H](O[C@H]2C[C@@H](O)[C@]3(CO)[C@H]4[C@H](O)C[C@]5(C)[C@@H](C6=CC(=O)OC6)CC[C@]5(O)[C@@H]4CC[C@]3(O)C2)[C@H](O)[C@H](O)[C@H]1O [OUABAIN]"
  AC50: "> 30 µM"
- compound: "CC(C)(Oc1ccc(Cl)cc1)C(=O)NC(=O)NCN1CCOCC1 [PLAFIBRIDE]"
  AC50: "> 30 µM"

[Q] For the compound CCOc1ccc(Cc2nccc3cc(OCC)c(OCC)cc23)cc1OCC [ETHAVERINE] , report AC50.
[A] 9.55 µM

[Q] For the compound COc1cccc2c1C(=O)c1c(O)c3c(c(O)c1C2=O)C[C@@](O)(C(=O)CO)C[C@@H]3O[C@H]1C[C@H](N)[C@@H](O)[C@H](C)O1 [EPIRUBICIN] , report AC50.
[A] > 1 µM

[Q] For the compound COc1cccc2c1C(=O)c1c(O)c3c(c(O)c1C2=O)C[C@@](O)(C(=O)CO)C[C@@H]3O[C@H]1C[C@H](N)[C@H](O[C@@H]2CCCCO2)[C@H](C)O1 [PIRARUBICIN] , report AC50.
[A] > 10 µM

[Q] For the compound Oc1ccc(OCc2ccccc2)cc1 [MONOBENZONE] , report AC50.
[A] > 30 µM

[Q] For the compound OCc1ccccc1 [BENZYL ALCOHOL] , report AC50.
[A] > 30 µM

* * *

AC50, Motilin receptor (Homo sapiens, UniProt O43193), per-entry values.
Where a SMILES comes first, the peptide text is derived from it.

Example cases with answers are listed next.
- compound: "NCCCCCC(=O)O [AMINOCAPROIC ACID]"
  AC50: "> 10 µM"
- compound: "C[C@H](Nc1ncnc2[nH]cnc12)c1cc2cccc(Cl)c2c(=O)n1-c1ccccc1 [DUVELISIB]"
  AC50: "> 30 µM"
- compound: "CC(=O)N1CCN(c2ccc(OCC3COC(Cn4ccnc4)(c4ccc(Cl)cc4Cl)O3)cc2)CC1 (stereo not drawn) [KETOCONAZOLE]"
  AC50: "> 10 µM"
- compound: "CC(C(=O)O)c1ccc(C(=O)c2ccccc2)s1 (stereo not drawn) [TIAPROFENIC ACID]"
  AC50: "> 10 µM"
- compound: "COc1cc2c(cc1OC)C1CC(=O)C(CC(C)C)CN1CC2 (stereo not drawn) [TETRABENAZINE]"
  AC50: "> 30 µM"

[Q] State measured AC50 of the compound CC(=O)OCC(=O)[C@@]1(O)CC[C@H]2[C@@H]3CCC4=CC(=O)CC[C@]4(C)[C@@]3(F)[C@@H](O)C[C@@]21C [FLUDROCORTISONE ACETATE] with Motilin receptor (Homo sapiens, UniProt O43193).
Sequence (O43193 whole entry): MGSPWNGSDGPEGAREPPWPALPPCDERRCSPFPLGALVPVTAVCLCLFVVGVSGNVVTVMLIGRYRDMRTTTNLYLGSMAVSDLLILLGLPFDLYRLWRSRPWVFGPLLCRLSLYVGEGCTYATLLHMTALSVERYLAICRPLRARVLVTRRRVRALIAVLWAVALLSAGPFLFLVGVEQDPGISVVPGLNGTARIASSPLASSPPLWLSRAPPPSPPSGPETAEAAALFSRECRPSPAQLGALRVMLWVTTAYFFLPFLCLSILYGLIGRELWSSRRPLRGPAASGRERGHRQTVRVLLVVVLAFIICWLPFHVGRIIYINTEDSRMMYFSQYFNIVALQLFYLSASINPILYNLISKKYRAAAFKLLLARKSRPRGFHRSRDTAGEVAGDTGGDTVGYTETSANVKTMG
[A] > 30 µM

[Q] State measured AC50 of the compound N[C@@H](Cc1cc(I)c(Oc2cc(I)c(O)c(I)c2)c(I)c1)C(=O)O [LEVOTHYROXINE] with Motilin receptor (Homo sapiens, UniProt O43193).
[A] > 30 µM

[Q] State measured AC50 of the compound CC1CC(OC(=O)C(O)c2ccccc2)CC(C)(C)C1 (stereo not drawn) [CYCLANDELATE] with Motilin receptor (Homo sapiens, UniProt O43193).
[A] > 10 µM

[Q] State measured AC50 of the compound Nc1nnc(-c2cccc(Cl)c2Cl)c(N)n1 [LAMOTRIGINE] with Motilin receptor (Homo sapiens, UniProt O43193).
[A] > 10 µM

[Q] State measured AC50 of the compound Cc1c(C)c2c(c(C)c1O)CCC(C)(COc1ccc(CC3SC(=O)NC3=O)cc1)O2 (stereo not drawn) [TROGLITAZONE] with Motilin receptor (Homo sapiens, UniProt O43193).
[A] > 30 µM

[Q] State measured AC50 of the compound CC(=O)Oc1cccc2c1C(=O)c1c(OC(C)=O)cc(C(=O)O)cc1C2=O [DIACEREIN] with Motilin receptor (Homo sapiens, UniProt O43193).
[A] > 30 µM

[Q] State measured AC50 of the compound N=C(N)NC(=O)c1nc(Cl)c(N)nc1N [AMILORIDE] with Motilin receptor (Homo sapiens, UniProt O43193).
[A] > 30 µM

[Q] State measured AC50 of the compound C[C@H](N)C(=O)N[C@@H](CCC(N)=O)C(=O)O [ALANYL GLUTAMINE] (H-Ala-Gln-OH) with Motilin receptor (Homo sapiens, UniProt O43193).
[A] > 30 µM

Reference source: ChEMBL document CHEMBL5291721
